Just for reference, PubChem BioAssay (Tox21) is where these values come from.

Assay: qHTS assay to test for compound auto fluorescence at 460 nm (blue) in HepG2 cells (AID 720687); also: % is scaled to controls: 0 for no effect and ±100 for the full control effect
Conditions: autofluorescence 405/460 nm, 1 h; series mostly up to 91.3 µM
Calls of active or inactive are those of the source. Calls follow the shape of the dose curve; as a rule, active = well fitted curve in the direction sought with a large enough effect in the repeat runs; inconclusive = weak or mixed curves; inactive = flat fitted curve, though single readings scatter.
Recorded metric: fluorescence, % of fluorescent control

A selection of reference data follows.
CCCCCCCCCCCCCCCCCCCl | -0.0032% [at 3.72 µM] (inactive)
Cc1c(Cl)cccc1[N+](=O)[O-] | inactive
C[C@H]1C[C@H]2[C@@H]3CCC4=CC(=O)C=C[C@]4(C)[C@@]3(F)[C@@H](O)C[C@]2(C)[C@@]1(O)C(=O)COP(=O)(O)O | inactive
O=C1c2ccccc2C(=O)C1c1ccc2cc(S(=O)(=O)O)cc(S(=O)(=O)O)c2n1 | inactive
COC=O | -0.259% [at 9.17 µM] (inactive)

Enquiry: Return value of fluorescence, % of fluorescent control for input `Nc1ccc(-c2ccc(F)cc2)cc1` , no commentary.
Return: inactive

Enquiry: Return value of fluorescence, % of fluorescent control for input `CC1(C)[C@@H]2CC[C@]3(C2)[C@@H]1C(=O)CCC3(C)C` , no commentary.
Return: inactive

Enquiry: Return value of fluorescence, % of fluorescent control for input `O=C(O)c1ccc(O)c(O)c1` , no commentary.
Return: inactive

Enquiry: Return value of fluorescence, % of fluorescent control for input `Cc1c(-c2cccnc2)c2ccccc2n1CCCCC(=O)O` , no commentary.
Return: inactive

Enquiry: Return value of fluorescence, % of fluorescent control for input CC(O)CN (stereo unspecified) , no commentary.
Return: inactive

Enquiry: Return value of fluorescence, % of fluorescent control for input `C[C@]12CCC(=O)C=C1[C@@H]1C[C@@H]1[C@H]1[C@@H]3[C@@H]4C[C@@H]4[C@@]4(CCC(=O)O4)[C@@]3(C)CC[C@@H]12` , no commentary.
Return: inactive
